Molecular target: Dopamine beta hydroxylase (Homo sapiens, UniProt P09172)
Construct: 125 μl of plasma; tissue Instituto Português do Sangue Transplantação; host or cells: human plasma from healthy donors
Sequence (P09172 40-617 limits assumed): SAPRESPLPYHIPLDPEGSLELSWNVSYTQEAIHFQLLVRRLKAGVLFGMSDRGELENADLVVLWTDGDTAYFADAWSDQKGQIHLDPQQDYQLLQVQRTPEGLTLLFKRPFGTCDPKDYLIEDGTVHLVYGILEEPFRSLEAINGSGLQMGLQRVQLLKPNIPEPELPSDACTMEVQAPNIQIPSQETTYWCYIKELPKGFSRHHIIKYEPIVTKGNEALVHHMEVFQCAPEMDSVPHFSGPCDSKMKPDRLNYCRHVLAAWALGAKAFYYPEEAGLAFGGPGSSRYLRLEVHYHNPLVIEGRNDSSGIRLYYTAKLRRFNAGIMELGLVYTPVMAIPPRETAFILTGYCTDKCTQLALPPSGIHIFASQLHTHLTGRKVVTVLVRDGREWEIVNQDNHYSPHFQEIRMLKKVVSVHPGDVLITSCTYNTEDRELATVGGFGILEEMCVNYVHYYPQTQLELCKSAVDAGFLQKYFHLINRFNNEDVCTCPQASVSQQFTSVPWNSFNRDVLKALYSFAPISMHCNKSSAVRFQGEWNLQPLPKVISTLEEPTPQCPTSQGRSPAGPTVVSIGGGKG
Experiment: Dopamine beta hydroxylase activity in human plasma
Type: biochemical
Conditions: inhibitor 0.1 μM
measurement-kind: Plasma (0.1 μM), activity in % of control

Past entries and their recorded results:
{"compound": "CCOC(=O)Cc1[nH]c(=S)n2c1C[C@H](c1c(F)ccc(Br)c1F)C2 [Example 60]", "recorded-result": "68.9 % of control"}
{"compound": "O=C(Cc1[nH]c(=S)n2c1C[C@H](c1c(F)ccc(Br)c1F)C2)N1CCC(F)(F)CC1 [Example 117]", "recorded-result": "43.0 % of control"}
{"compound": "O=C(Cc1[nH]c(=S)n2c1C[C@@H](c1c(F)ccc(Br)c1F)C2)N1CC[S+]([O-])CC1 [Example 166]", "recorded-result": "14.1 % of control"}

API: the following record is the query input.
Plasma (0.1 μM), activity in % of control for Cn1c(CC(=O)N2CCOCC2)c2n(c1=S)C[C@H](c1c(F)ccc(Br)c1F)C2 [Example 233] ? 66.8 % of control
